Sourced from patent US10131652B2

- System: waterhemp (common waterhemp, Amaranthus rudis)
- runDescription: Test D pre-/postemergence plant response
- Format: in vivo
- appliedConditions: Postemergence, 16 g ai/ha; scale 0 to 100 (0 no effect, 100 complete control)
endpointLabel: Waterhemp plant response rating
Respond with the number and no other words.

**Query** Would you mind telling me what Waterhemp plant response rating value was observed for Fc1ccc(Oc2ncc(Cl)cn2)c(-c2cc(C(F)F)on2)c1Cl [Compound 96] ?
**Result** 85

**Query** What about FCc1cc(-c2c(F)cccc2Oc2ncc(Cl)cn2)no1 [Compound 57] ?
**Result** 60

Continuing:
**Query** Would you mind telling me what Waterhemp plant response rating value was observed for FC(F)c1cc(-c2c(Cl)cccc2Oc2ncc(Cl)cn2)on1 [Compound 120] ?
**Result** 90

**Query** What about Cc1cc(-c2ccccc2Oc2ncc(Cl)cn2)on1 [Compound 58] ?
**Result** 35

**Query** What about Cc1cc(-c2ccccc2Oc2ncc(Cl)cn2)no1 [Compound 60] ?
**Result** 15

###

- Tested on: chickweed (common chickweed, Stellaria media)
- runDescription: Test D postemergence plant response
- Format: in vivo
- appliedConditions: 62 g ai/ha, scale 0 to 100, 0 no effect, 100 complete control
Note to self: use TRUE only for Plant response rating, Chickweed readings below 70; a reading exactly at 70 still gets FALSE.

A selection of reference data follows.
**Query** # TODO verify Plant response rating, Chickweed < 70 strictly for this compound: Cc1cc(-c2ccccc2Oc2ncc(Cl)cn2)on1
**Result** TRUE

**Query** What about Fc1ccc(Oc2ncc(Cl)cn2)c(-c2cc(C(F)F)on2)c1Cl ?
**Result** FALSE

Continuing:
**Query** # TODO verify Plant response rating, Chickweed < 70 strictly for this compound: FC(F)c1cc(-c2c(Cl)cccc2Oc2ncc(Br)cn2)on1
**Result** FALSE

**Query** What about FC(F)Oc1cccc(Oc2ncc(Cl)cn2)c1-c1cc(C(F)F)on1 ?
**Result** FALSE

**Query** What about FCc1cc(-c2c(F)cccc2Oc2ncc(Cl)cn2)no1 ?
**Result** TRUE

**Query** What about N#Cc1cccc(Oc2ncc(Cl)cn2)c1-c1cc(C(F)F)on1 ?
**Result** FALSE

**Query** What about FC(F)(F)c1cc(-c2c(Br)cccc2Oc2ncc(Cl)cn2)no1 ?
**Result** FALSE

###

Each entry below lists one item and its recorded pest or weed control at 125 g/ha value.
- System: Italian ryegrass (Lolium multiflorum)
- runDescription: Test E pre-/postemergence plant response
- Format: in vivo
- appliedConditions: pre-emergence, 125 g ai/ha, Preemergence, scale 0 to 100, read-out: Plant response rating, Ryegrass, Italian
Report the figure in % without appending any unit label.

Some entries whose results are on file:
**Query** Requested read-out pest or weed control at 125 g/ha, target or system Italian ryegrass (Lolium multiflorum), entry Fc1cccc(Oc2ncc(Cl)cn2)c1-c1cc(C(F)F)no1 [Compound 144]
**Result** 100

**Query** What about FC(F)c1cc(-c2ccccc2Oc2ncc(Br)cn2)no1 [Compound 62] ?
**Result** 25

**Query** What about FC(F)c1cc(-c2ccccc2Oc2ncc(Cl)cn2)no1 [Compound 35] ?
**Result** 75

**Query** What about FC(F)c1cc(-c2ccccc2Oc2ncc(Cl)cn2)on1 [Compound 53] ?
**Result** 25

Continuing:
**Query** Requested read-out pest or weed control at 125 g/ha, target or system Italian ryegrass (Lolium multiflorum), entry FC(F)(F)c1cc(-c2ccccc2Oc2ncc(Cl)cn2)no1 [Compound 200]
**Result** 85
